Recorded values, source patent US20230257393A1.

Listed next: entries and their corresponding EC50.
Study System: human TLR8 (Homo sapiens)
Construct: host or cells: HEK293 reporter cells
Protocol Details: HEK Reporter Assay, HEK293 NFKB reporter cells expressing human TLR8
Assay type: cell-based
Protocol Conditions: Table 1c, read-out: HEK293 hTLR8 EC50
Recorded Metric: EC50 (nM)

Entry Smiles | Study System | Reading Qualifier | Numeric Value
CCCN(CCCNC(=O)OC1CCC1)C(=O)C1=Cc2sc(CCC3CNC3)cc2N=C(N)C1 | human TLR8 (Homo sapiens) | ≥ | 9000
CCCN(OCC)C(=O)C1=Cc2sc(C#CC3CNC3)cc2N=C(N)C1 | human TLR8 (Homo sapiens) | = | 1520
CN(C)Cc1ccc(CN(CCC(F)(F)F)C(=O)C2=Cc3sc(CCCCCN)cc3N=C(N)C2)cc1 | human TLR8 (Homo sapiens) | ≥ | 9000
CCCN(CCCNC(=O)OC1CCC1)C(=O)C1=Cc2sc(CNC(=O)Cc3ccccc3)cc2N=C(N)C1 | human TLR8 (Homo sapiens) | = | 2250

###

Study System: human TLR7 (Homo sapiens)
Construct: host or cells: HEK293 reporter cells
Sequence (Q9NYK1 27-1049): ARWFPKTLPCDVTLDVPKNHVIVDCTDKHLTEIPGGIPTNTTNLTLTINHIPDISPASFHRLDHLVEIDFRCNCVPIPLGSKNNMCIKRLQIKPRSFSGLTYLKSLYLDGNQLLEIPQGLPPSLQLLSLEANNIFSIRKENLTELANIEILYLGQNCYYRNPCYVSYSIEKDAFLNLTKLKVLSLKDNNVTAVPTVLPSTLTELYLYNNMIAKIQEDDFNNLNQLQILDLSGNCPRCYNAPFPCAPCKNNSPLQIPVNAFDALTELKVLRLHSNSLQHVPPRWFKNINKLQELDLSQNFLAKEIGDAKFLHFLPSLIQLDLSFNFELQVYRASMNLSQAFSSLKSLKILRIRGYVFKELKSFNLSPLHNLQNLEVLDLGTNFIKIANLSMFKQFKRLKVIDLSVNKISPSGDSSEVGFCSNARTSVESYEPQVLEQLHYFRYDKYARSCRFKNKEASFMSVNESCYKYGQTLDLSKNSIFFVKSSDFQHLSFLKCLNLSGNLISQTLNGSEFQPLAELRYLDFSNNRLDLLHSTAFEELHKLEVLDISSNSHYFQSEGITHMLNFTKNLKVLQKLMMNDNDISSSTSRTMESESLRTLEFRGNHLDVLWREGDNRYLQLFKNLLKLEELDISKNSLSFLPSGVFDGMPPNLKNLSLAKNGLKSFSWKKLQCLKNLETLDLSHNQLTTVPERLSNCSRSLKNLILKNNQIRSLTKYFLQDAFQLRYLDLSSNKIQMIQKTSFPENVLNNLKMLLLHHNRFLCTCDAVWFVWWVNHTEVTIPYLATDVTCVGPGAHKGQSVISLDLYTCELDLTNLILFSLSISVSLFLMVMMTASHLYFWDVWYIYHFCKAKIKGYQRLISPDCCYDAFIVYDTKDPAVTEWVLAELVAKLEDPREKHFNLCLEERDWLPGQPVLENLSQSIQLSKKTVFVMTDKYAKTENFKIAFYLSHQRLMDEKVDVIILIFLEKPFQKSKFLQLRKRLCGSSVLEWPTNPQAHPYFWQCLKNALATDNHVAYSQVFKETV
Protocol Details: HEK Reporter Assay, HEK293 NFKB reporter cells expressing human TLR7
Assay type: cell-based
Protocol Conditions: Table 1c, read-out: HEK293 hTLR7 EC50
pEC50: −log10 of the molar value.
Recorded Metric: pEC50

Entry Smiles | Result
CCCN(Cc1cnc(CN(C)C)c(C(F)(F)F)c1)C(=O)C1=Cc2sc(CCCCCNC(=O)OC(C)(C)C)cc2N=C(N)C1 | ≤ 5.05
CCCN(CCC)C(=O)C1=Cc2scc(C)c2N=C(N)C1 | ≤ 5.05
CCCN(Cc1cnc(CN(C)C)c(C(F)(F)F)c1)C(=O)C1=Cc2sc(CCCCCN)cc2N=C(N)C1 | ≤ 5.05

###

Items are presented alongside their recorded pEC50.
Study System: human TLR8 (Homo sapiens, UniProt Q9NR97)
Construct: host or cells: HEK293 reporter cells
Protocol Details: HEK Reporter Assay, HEK293 NFKB reporter cells expressing human TLR8
Type: cell-based
Protocol Conditions: Table 1b, read-out: HEK293 hTLR8 EC50
pEC50: −log10 of the molar value.
Recorded Metric: pEC50

Entry Smiles | Recorded Metric | Numeric Value
CCCN(CCCc1ccc(CN2CCNCC2)cc1)C(=O)C1=Cc2sccc2N=C(N)C1 | pEC50 | 5.53
CCCN(CCC)C(=O)C1=Cc2sc(COCCNC(=O)OC(C)(C)C)cc2N=C(N)C1 | pEC50 | 5.42
CCCN(OCC)C(=O)C1=Cc2sc(COCCCN)cc2N=C(N)C1 | pEC50 | 5.53

###

Study System: human TLR8 (Homo sapiens)
Construct: host or cells: HEK293 reporter cells
Sequence (Q9NR97 27-1041): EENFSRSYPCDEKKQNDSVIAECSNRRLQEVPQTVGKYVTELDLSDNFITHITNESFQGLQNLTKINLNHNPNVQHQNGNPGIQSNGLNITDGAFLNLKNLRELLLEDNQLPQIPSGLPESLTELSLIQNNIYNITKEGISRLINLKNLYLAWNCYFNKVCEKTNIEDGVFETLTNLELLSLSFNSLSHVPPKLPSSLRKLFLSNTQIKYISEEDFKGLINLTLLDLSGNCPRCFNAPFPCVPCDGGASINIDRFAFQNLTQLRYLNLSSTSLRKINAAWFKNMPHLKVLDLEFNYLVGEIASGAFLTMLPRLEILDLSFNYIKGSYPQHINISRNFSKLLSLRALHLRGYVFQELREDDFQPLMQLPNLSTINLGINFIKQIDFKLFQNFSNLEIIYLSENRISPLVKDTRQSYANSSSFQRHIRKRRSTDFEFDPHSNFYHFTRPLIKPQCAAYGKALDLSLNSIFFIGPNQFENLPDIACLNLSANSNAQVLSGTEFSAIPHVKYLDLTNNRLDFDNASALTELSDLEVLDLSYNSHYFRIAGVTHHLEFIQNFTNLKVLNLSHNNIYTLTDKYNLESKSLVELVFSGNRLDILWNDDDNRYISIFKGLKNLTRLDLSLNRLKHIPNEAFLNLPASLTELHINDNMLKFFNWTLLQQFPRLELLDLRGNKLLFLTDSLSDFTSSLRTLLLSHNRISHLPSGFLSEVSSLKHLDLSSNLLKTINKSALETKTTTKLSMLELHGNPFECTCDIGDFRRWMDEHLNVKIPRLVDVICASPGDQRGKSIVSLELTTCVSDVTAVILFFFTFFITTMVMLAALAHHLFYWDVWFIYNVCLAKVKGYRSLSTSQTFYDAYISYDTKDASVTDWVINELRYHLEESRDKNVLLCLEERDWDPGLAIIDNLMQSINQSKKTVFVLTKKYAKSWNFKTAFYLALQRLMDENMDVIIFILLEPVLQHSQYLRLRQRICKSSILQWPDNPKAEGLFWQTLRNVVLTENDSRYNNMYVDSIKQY
Protocol Details: HEK Reporter Assay, HEK293 NFKB reporter cells expressing human TLR8
Assay type: cell-based
Protocol Conditions: Table 1c, read-out: HEK293 hTLR8 EC50

Entry Smiles | EC50
CCCN(OCC)C(=O)C1=Cc2sc(CN3C[C@H]4C[C@@H]3CN4)cc2N=C(N)C1 | 3.05 µM
CCCN(CCCNC(=O)OC1CCC1)C(=O)C1=Cc2sc(C#CC3CNC3)cc2N=C(N)C1 | 3.48 µM
CCCN(CCCNC(=O)OC1CCC1)C(=O)C1=Cc2sc(CN3CCN(c4ccc(C(=O)OC)cc4)CC3)cc2N=C(N)C1 | ≥ 9 µM
CCCN(OCC)C(=O)C1=Cc2sc(CN3CCC(c4ccc(C(=O)OC)cc4)CC3)cc2N=C(N)C1 | ≥ 9 µM
CCCN(CCCNC(=O)OC1CCC1)C(=O)C1=Cc2sc(CN3CCNCC3)cc2N=C(N)C1 | ≥ 9 µM
CCCN(CC1CC1)C(=O)C1=Cc2sc(CCCCCNC(=O)OC(C)(C)C)cc2N=C(N)C1 | ≥ 9 µM
CCCN(CCC)C(=O)C1=Cc2sc(CC(=O)NCCN)cc2N=C(N)C1 | ≥ 9 µM
CCCN(Cc1ccc(CN(C)C)c(C(F)(F)F)n1)C(=O)C1=Cc2sc(CCCCCNC(=O)OC(C)(C)C)cc2N=C(N)C1 | ≥ 9 µM
CCCN(C(=O)C1=Cc2sc(CCCCCNC(=O)OC(C)(C)C)cc2N=C(N)C1)C1CC1 | ≥ 9 µM
CCCN(CCCNC(=O)CC(C)(C)C)C(=O)C1=Cc2sc(CN3CCNCC3)cc2N=C(N)C1 | ≥ 9 µM
CCCN(OCC)C(=O)C1=Cc2sc(CN3CCCN(C(=O)OC(C)(C)C)CC3)cc2N=C(N)C1 | 4.43 µM
CCCN(Cc1cnc(CN(C)C)c(C(F)(F)F)c1)C(=O)C1=Cc2sc(CCCCCNC(=O)OC(C)(C)C)cc2N=C(N)C1 | ≥ 9 µM
CCCN(OCC)C(=O)C1=Cc2sc(CN3CC4(CNC4)C3)cc2N=C(N)C1 | ≥ 9 µM
CCCN(C[C@H]1CC[C@@H](CNC(=O)OC(C)(C)C)CC1)C(=O)C1=Cc2sccc2N=C(N)C1 | ≥ 9 µM
CCCN(OCC)C(=O)C1=Cc2sc(C#CC3CCN(C(=O)OC(C)(C)C)CC3)cc2N=C(N)C1 | ≥ 9 µM
CCCN(OCC)C(=O)C1=Cc2sc(CN3CCN(c4ccc(C(=O)OC(C)(C)C)cc4)CC3)cc2N=C(N)C1 | ≥ 9 µM
